Each entry below lists one item and its recorded pKd value.
Biological target: T1, mouse serum albumin (mouse, UniProt P07724 25-608)
T1 construct: also called MSA
Assay: SPR (BIAcore), eight-point dilution kinetics
Convention used: pKd is expressed as -log10 of the molar concentration.

Q) Given the binder DOM7r-36-2 (VHH) VHH: EVQLLESGGGLVQPGGSLRLSCAASGFTFNHYTMGWVRQAPGKGREWVSLIHPSGTVTYYADSVKGRFTISRDNSKNTLYLQMNSLRAEDTAVYYCAKWSSRAFDYWGQGTLVTVSS , what is its reported pKd?
A) 6.28

Q) Query: pKd; subject: DOM7r-92-4 (VHH) VHH: EVQLLESGGGLVQPGGSLRLSCAASGFTFDTSSMLWVRQAPGKGLEWVSVIHQSGTPTYYADSVKGRFTISRDNSKNTLYLQMNSLRAEDTAVYYCAKFPSTHGKFDYWGQGTLVTVSS
A) 6.96
